Provide the reported viability, T/C of each item.
Test system: KRAS PDC multicell spheroid viability;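 also: spheroids exposed to compounds for 7 days; 100% = DMSO vehicle control viability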
Assay: Anticancer human tumor 825966-067-R-J1-PDC patient-derived colon carcinoma cell line growth inhibition [KRAS2]
Details: second compound 0.0316 µM; first compound 0.0316 µM; stronger effect = lower value
Text: Multicellular complex tumor spheroid response to RAS pathway inhibitors in combination with a targeted agents in patient-derived cell lines with oncogenic KRAS variants from multiple cancer types A high-throughput screen of multi-cell type tumor spheroids was designed to identify active combinations of targeted small molecules and KRAS pathway inhibitors. […] Compounds. […] If the clinical Cmax for an agent had not been determined, the highest concentration tested was 10 microM. […]
Answers are plain numbers, in %.

[Q] Provide viability, T/C value for the following compound: COc1cc2nccc(Oc3ccc(NC(=O)C4(C(=O)Nc5ccc(F)cc5)CC4)cc3)c2cc1OC + C=CC(=O)N1CCN(c2nc(OCC3CCCN3C)nc3c2CCN(c2cccc4cccc(C)c24)C3)CC1CC#N
[A] 96.4

[Q] Determine its reported viability, T/C: COC(=O)c1ccc2c(C(=Nc3ccc(N(C)C(=O)CN4CCN(C)CC4)cc3)c3ccccc3)c(O)[nH]c2c1 + C=CC(=O)N1CCN(c2nc(OCC3CCCN3C)nc3c2CCN(c2cccc4cccc(C)c24)C3)CC1CC#N
[A] 78.2

Shifting focus to the compound that follows.
[Q] Quickly give me recorded viability, T/C for CC(=O)Nc1cccc(-n2c(=O)n(C3CC3)c(=O)c3c(Nc4ccc(I)cc4F)n(C)c(=O)c(C)c32)c1 + C=CC(=O)N1CCN(c2nc(OCC3CCCN3C)nc3c2CCN(c2cccc4cccc(C)c24)C3)CC1CC#N
[A] 49.8
